Data origin, for the record: the supplement of paper PMC9112550

Each record here notes measured shrunken log2 fold change.
- System: Escherichia coli TOP10;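 also: peptides expressed intracellularly from a pBAD plasmid library in pooled LB shake-flask culture, induced with 0.3% L-arabinose, DNA abundance read by NGS, three biological replicates, DESeq2 with apeglm shrinkage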
- test protocol: shrunken log2 fold change of peptide-encoding DNA abundance (4.5 h post-induction vs induction); higher = less antimicrobial activity (less host growth inhibition)
- condition notes: time post-induction: 4.5 h; library: site-saturation at positions 5, 18, 19, 20
Reply with the value as a number alone.

Consider the reported shrunken log2 fold change for these sequences:
RRIRSRPPRLPRPRPRPRWYPRP -0.402
RRIRKRPPRLPRPRPRPQGLPRP 0.256
RRIRDRPPRLPRPRPRPRQWPRP 0.36
RRIRFRPPRLPRPRPRPVGAPRP 0.472
RRIRRRPPRLPRPRPRPAQDPRP 0.349
RRIRSRPPRLPRPRPRPPWLPRP 0.462
RRIRTRPPRLPRPRPRPQASPRP 2.4
RRIRMRPPRLPRPRPRPYWGPRP -0.0296
RRIRQRPPRLPRPRPRPQKPPRP 0.0718
RRIRVRPPRLPRPRPRPAFEPRP 0.125

Reported shrunken log2 fold change (Escherichia coli TOP10) for entry "RRIRERPPRLPRPRPRPPVQPRP" is -0.122

Reported shrunken log2 fold change (Escherichia coli TOP10) for entry "RRIRWRPPRLPRPRPRPVFDPRP" is 0.138

Reported shrunken log2 fold change (Escherichia coli TOP10) for entry "RRIRCRPPRLPRPRPRPFWQPRP" is -0.0799

Reported shrunken log2 fold change (Escherichia coli TOP10) for entry "RRIRSRPPRLPRPRPRPHFDPRP" is 0.0286

Reported shrunken log2 fold change (Escherichia coli TOP10) for entry "RRIRTRPPRLPRPRPRPSPMPRP" is -0.163
